Listed here are molecules together with their documented IC50.
- System: EGFR L858R/T790M Ba/F3 cells
- MEASUREMENT_PROTOCOL: MTS cell proliferation and growth assay in EGFR mutant Ba/F3 cells (L858R/T790M)
- Type: cell-based
- TEST_CONDITIONS: Mus musculus, BaF3, 72 hours
Reply with just the number (in nM).

>  <SAMPLE_SMILES>
C=CC(=O)Nc1cccc(Oc2nc(Nc3ccc(N4CCN(C)CC4)cc3OC)nc3ccccc23)c1

>  <IC50, nM>
688

$$$$

Shift focus to the following entry.
Suppose we examine the molecule C=CC(=O)Nc1cccc(-c2csc3cnc(Nc4ccc(N5CCN(C)CC5)cc4OC)nc23)c1 ; what IC50 value has been reported? 2160
